Each recorded value in this set is attributed to PubChem BioAssay (NCI).

Assay: NCI Yeast Anticancer Drug Screen. Data for the mec2-1 strain (AID 157)
Conditions: S. cerevisiae mec2-1 strain, at 50.0 µM (retest, dose inferred, filed as 5.0)
This is part of a sample that, as a whole, favours compounds with a hit. Of some 79,000 tested, about 15% had one in any assay. Calls of active or inactive are those of the source. No stated cut-off is given here; in the data, active means growth inhibition above about 70%; inactive means the rest.
Use one of these outcomes when replying: Yes (active), No (inactive)

Challenge: Hey, what did the test say about Cc1cc([N+](=O)[O-])cc(C)c1OC(=O)Nc1c(Cl)cccc1Cl ?
Response given: No

====

Assay: NCI Yeast Anticancer Drug Screen. Data for the mec2-1 strain (AID 157)
Conditions: S. cerevisiae mec2-1 strain, at 50.0 µM (retest, dose inferred, filed as 5.0)
The panel holds about 79,000 compounds, 15% with a hit somewhere; the sample as a whole holds those more often. Activity calls are given as the source filed them. Rule as the data show it: active = growth inhibition above about 70%; inactive = the rest.
Answer with one of the outcomes given here: active, inactive

// below: answered compounds
| Compound | Category |
| --- | --- |
| COc1cc(OC)c(C2CC(C)(OC)Oc3cc4c(cc32)OCO4)c(OC)c1 (stereo not drawn) | inactive |
| CSC1NNC2(C(=O)N1)c1ccccc1-c1ccccc12 (stereo not drawn) | active |
| CCOC(=O)c1cnccc1CC1(C#N)c2ccccc2C=CN1C(=O)c1ccccc1 (stereo not drawn) | active |

Challenge: Call for entry CC(C)(C)[Si](C)(C)OCC1OC(n2cc(I)c(N)nc2=O)C(O[Si](C)(C)C(C)(C)C)C1O[Si](C)(C)C(C)(C)C (stereo not drawn) :
Response given: active

Challenge: Continue with O=C(O)CCCCCCCCC(=O)O.[Ag]
Response given: active

====

Test: NCI Yeast Anticancer Drug Screen. Data for the mec2-1 strain (AID 157)
Conditions: S. cerevisiae mec2-1 strain, at 5.0 µM (retest, dose inferred, filed as 0.5), active compounds read high
Compounds without any hit were thinned out: in the full panel of roughly 79,000, 15% have a hit.
Recorded growth inhibition by entry
Value expressed in %; do not type the unit.

Some molecules with recorded growth inhibition:
| Molecule | Observed property | Output unit | Experimental result |
| --- | --- | --- | --- |
| Cc1ccsc1C(=S)Nc1ccc(Cl)c(/C=N/OC(C)C)c1 | growth inhibition | % | 9 |
| CN1C=C(C#N)CCC1Sc1ccc(Cl)cc1 (stereo unspecified) | growth inhibition | % | 5 |
| CCOC(=O)c1cc(C)ccc1-c1ccc(C)cc1C(=O)OCC | growth inhibition | % | -10 |
| CCCCCCc1cc(C(=O)N/N=C\c2cccc([N+](=O)[O-])c2)c2ccccc2n1 | growth inhibition | % | -1 |
| CCCC(=O)Oc1ccc(OCc2ccccc2)cc1 | growth inhibition | % | -1 |

Now consider a different molecule.
Challenge: Consider the molecule shown here: COC(OC)(c1ccccc1)C(Br)Br What is its recorded growth inhibition?
Response given: -18

====

Experiment: NCI Yeast Anticancer Drug Screen. Data for the bub3 strain (AID 167)
Settings: S. cerevisiae bub3 mutant strain, at 50.0 µM (retest, dose inferred, filed as 5.0)
This is part of a sample that, as a whole, favours compounds with a hit. Of some 79,000 tested, about 15% had one in any assay. Active and inactive are the calls of the source. No stated cut-off is given here; in the data, active means growth inhibition above about 70%; inactive means the rest.
Classes to choose from: active, inactive

Here's what some known entries look like.
| Compound | Category |
| --- | --- |
| OCCSC(=S)Nc1ccc(Cl)c(Cl)c1 | active |
| Cc1[nH]c2ccccc2c1/C=C1/CCCCCCC1=O | inactive |
| CCOC(=O)CN1CCCC(C(=O)CC2(O)C3(Cl)C4(Cl)C5(Cl)C(Cl)(Cl)C6(Cl)C4(Cl)C2(Cl)C6(Cl)C53Cl)C1 (stereo not drawn) | active |
| Oc1c(Br)ccc2cccnc12 | active |
| CC(/C=C/c1ccc(Cl)c(Cl)c1)=N\NC(N)=S | active |

Challenge: For CCCCCCCCCCCCCCSC(=N)N , what call appears in the results of this test?
Response given: active

Challenge: Another: O/N=C(/C[N+]12CN3CN(CN(C3)C1)C2)c1ccc(I)cc1
Response given: inactive

Challenge: Same lookup for COc1cc2c(cc1OC)-c1nc(N)sc1CC2 , please.
Response given: inactive

Challenge: Then this compound: COc1ccccc1C(=O)c1c(C(=O)O)ccc2ccccc12
Response given: inactive
